These measurements were taken from paper PMC5785531.

Test: Pharmacokinetics in silkworm hemolymph after intra-hemolymph injection
Type: in vivo, Silkworms (Bombyx mori)
Details: Hu•Yo × Tsukuba•Ne, 50 ug, injected dose 50 μg intra-hemolymph
ASSAY_ENDPOINT: Cmax
Give the value; after it, write the unit.

- CHEMICAL_STRUCTURE: "O=C(OCc1ccccc1)c1ccc([N+](=O)[O-])s1"
  Cmax: "7000 ng/mL"

Quick one: Cmax of O=C(OCc1cc(Cl)cc(Cl)c1)c1ccc([N+](=O)[O-])s1 ?
23000 ng/mL

* * *

Test system: S. aureus MRSA4
Test: MIC against S. aureus MRSA4 in vitro (broth dilution)
Type: cell-based
Settings: Staphylococcus aureus; S. aureus MRSA4 in vitro; SAR series (Fig. 2)
Procedure: We synthesized 50 compounds (Fig. 2, Supplementary Table 1) using the Steglich esterification scheme[31] in the presence of a […], 1-ethyl-3-(3-dimethylaminopropyl)-carbodiimide hydrochloride (Fig. 1b). […] Antimicrobial activity was assessed by determining the MIC by broth dilution assay according to our previous reports[21],[35],[36] as per the Clinical and Laboratory Standards Institute[37]. […]
Give MIC for every item shown.
Numbers only, in µg/mL.

Take a look at these entries with their results.
- COMPOUND: "CN(C)c1cccc(COC(=O)c2ccc([N+](=O)[O-])s2)c1 [compound 55]"
  MIC / µg/mL: 25
- COMPOUND: "O=C(OCc1c(F)cccc1Cl)c1ccc([N+](=O)[O-])s1 [compound 44]"
  MIC / µg/mL: 6.3

Report MIC for every entry below.
1. O=C(OCc1cccc(Br)c1)c1ccc([N+](=O)[O-])s1 [compound 18]
2. O=C(OCc1cccc(Br)c1)c1ccc([N+](=O)[O-])o1 [compound 17]
3. O=C(NCc1cc(Cl)cc(Cl)c1)c1ccc([N+](=O)[O-])s1 [compound 52]
4. O=C(OCc1cc(Cl)cc(Cl)c1)c1ccc([N+](=O)[O-])s1 [compound 5]
5. O=C(OCc1cc(F)cc(Cl)c1)c1ccc([N+](=O)[O-])s1 [compound 20]

[1.6, 12.5, 25, 0.5, 0.4]

* * *

Tested on: S. aureus MRSA4
Assay: MIC against S. aureus MRSA4 in vitro (broth dilution)
Format: cell-based
Conditions: Staphylococcus aureus; S. aureus MRSA4 in vitro; SAR series (Fig. 2)
ASSAY_ENDPOINT: MIC (µg/mL)
Answers are plain numbers, in µg/mL.

Report MIC for every entry below.
1. O=C(OCc1cccc(F)c1)c1ccc([N+](=O)[O-])s1
2. O=C(OCc1cccc(Cl)c1)c1ccc([N+](=O)[O-])s1

1: 0.4; 2: 0.5

Report MIC for every entry below.
1. CC(OC(=O)c1ccc([N+](=O)[O-])s1)c1ccc(Cl)cc1Cl (centres unmarked)
2. O=Cc1ccc(C(=O)OCc2cc(Cl)cc(Cl)c2)s1

1: 1.6; 2: 25

* * *

Give MIC for every item shown.
System: S. aureus MRSA4
Assay: MIC against S. aureus MRSA4 in vitro (broth dilution)
Assay type: cell-based
Details: Staphylococcus aureus; S. aureus MRSA4 in vitro; SAR series (Fig. 2)
One number for each entry, in µg/mL.

Take a look at these entries with their results.
- CHEMICAL_STRUCTURE: "O=C(COc1cc(Cl)cc(Cl)c1)c1ccc([N+](=O)[O-])s1"
  TESTED_ON: "S. aureus MRSA4"
  MIC, µg/mL: 50
- CHEMICAL_STRUCTURE: "O=C(OCc1cc(Cl)cc(Cl)c1)c1cc([N+](=O)[O-])n[nH]1"
  TESTED_ON: "S. aureus MRSA4"
  MIC, µg/mL: 1.6
- CHEMICAL_STRUCTURE: "O=C(NCc1cccc(Cl)c1)c1ccc([N+](=O)[O-])o1"
  TESTED_ON: "S. aureus MRSA4"
  MIC, µg/mL: 3.1

Report MIC for every entry below.
1. O=C(NCc1cccc(Cl)c1)c1ccc([N+](=O)[O-])s1
2. Cc1cc(C)cc(COC(=O)c2ccc([N+](=O)[O-])s2)c1
3. O=C(OCc1ccc(Cl)cc1)c1ccc([N+](=O)[O-])s1
4. O=C(OCc1cc(Cl)cc(Cl)c1)c1ccc([N+](=O)[O-])o1
5. O=C(OCc1ccc(Cl)cc1Cl)c1ccc([N+](=O)[O-])s1
6. CSc1ccc(COC(=O)c2ccc([N+](=O)[O-])s2)cc1
7. Cc1ccc(Cl)c(COC(=O)c2ccc([N+](=O)[O-])s2)c1F

6.3
6.3
3.1
12.5
3.1
6.3
1.6

Report MIC for every entry below.
1. O=C(COc1cc(Cl)cc(Cl)c1)c1ccc([N+](=O)[O-])o1
2. O=C(OCc1ccc2ccccc2c1)c1ccc([N+](=O)[O-])s1
3. O=C(OCc1c(Cl)cccc1Cl)c1ccc([N+](=O)[O-])s1
4. O=Cc1ccc(C(=O)OCc2cc(F)cc(Cl)c2)s1

[50, 1.6, 3.1, 50]

Report MIC for every entry below.
1. O=C(OCc1ccccc1)c1ccc([N+](=O)[O-])o1
2. CN(Cc1ccccc1)C(=O)c1ccc([N+](=O)[O-])s1

12.5
50
